In this section we review reported IC50 values for a set of molecules.
# System: HCT-116
# run.description: Antiproliferative activity against human HCT-116 cells incubated for 48 hrs by MTS assay
# Assay type: functional, cell-based
# run.parameters: HCT-116, 48 h
endpoint: IC50 (µM)

[[record]]
smiles_repr = "COc1cc2c(c(OC)c1C(=O)/C=C/c1ccc(O)cc1)C=CC(C)(C)O2"
meas_value = 46.4

[[record]]
smiles_repr = "COc1cc2c(c(O)c1C(=O)/C=C/c1cccc(Br)c1)C=CC(C)(C)O2"
meas_value = 36.7

[[record]]
smiles_repr = "COc1cc2c(c(O)c1C(=O)/C=C/c1ccc(N3CCCCC3)cc1)C=CC(C)(C)O2"
meas_value = 200

[[record]]
smiles_repr = "COc1cc2c(c(O)c1C(=O)/C=C/c1cccc(OCc3ccccc3)c1)C=CC(C)(C)O2"
meas_value = 189

[[record]]
smiles_repr = "COc1cc2c(c(O)c1C(=O)/C=C/c1ccc(Cl)cc1)C=CC(C)(C)O2"
meas_value = 26.1

[[record]]
smiles_repr = "COc1cc(/C=C/C(=O)c2c(OC)cc3c(c2O)C=CC(C)(C)O3)ccc1O"
meas_value = 24.8

[[record]]
smiles_repr = "COc1cc(O)ccc1/C=C/C(=O)c1c(OC)cc2c(c1O)C=CC(C)(C)O2"
meas_value = 32.1

[[record]]
smiles_repr = "COc1cc2c(c(O)c1C(=O)/C=C/c1cccc(N3CCN(C)CC3)c1)C=CC(C)(C)O2"
meas_value = 12.5

[[record]]
smiles_repr = "COc1cc(/C=C/C(=O)c2c(OC)cc3c(c2O)C=CC(C)(C)O3)cc(OC)c1"
meas_value = 24.9


---

# run.description: Bioavailability in male Sprague-Dawley rat […] by UHPLC-MS/MS analysis
# Type: ADME, organism-based
# run.parameters: in vivo
endpoint: bioavailability (%)

[[record]]
smiles_repr = "COc1cc2c(c(O)c1C(=O)/C=C/c1ccccc1N1CCN(C)CC1)C=CC(C)(C)O2"
result_unit = "%"
meas_value = 37.5


---

# Test system: HCT-116
# run.description: Antiproliferative activity against human HCT-116 cells incubated for 48 hrs by MTS assay
# Type: functional, cell-based
# run.parameters: HCT-116, 48 h
pIC50: −log10 of the molar value.
In this section we review reported pIC50 values for a set of compounds.
endpoint: pIC50

[[record]]
smiles_repr = "COc1cc2c(c(O)c1C(=O)/C=C/c1ccc(O)c(Br)c1)C=CC(C)(C)O2"
readout_qualifier = "="
meas_value = 4.61

[[record]]
smiles_repr = "COc1cc2c(c(O)c1C(=O)/C=C/c1ccc([N+](=O)[O-])cc1)C=CC(C)(C)O2"
readout_qualifier = "="
meas_value = 3.79

[[record]]
smiles_repr = "CCN(CC)c1ccc(/C=C/C(=O)c2c(OC)cc3c(c2O)C=CC(C)(C)O3)cc1"
readout_qualifier = "<"
meas_value = 3.70

[[record]]
smiles_repr = "COc1cc(/C=C/C(=O)c2c(OC)cc3c(c2O)C=CC(C)(C)O3)cc(OC)c1OC"
readout_qualifier = "="
meas_value = 4.59

[[record]]
smiles_repr = "COc1cc2c(c(OC)c1C(=O)/C=C/c1ccc(Cl)cc1)C=CC(C)(C)O2"
readout_qualifier = "<"
meas_value = 4.89

[[record]]
smiles_repr = "COc1cc2c(c(O)c1C(=O)/C=C/c1ccc(Br)cc1)C=CC(C)(C)O2"
readout_qualifier = "="
meas_value = 3.81

[[record]]
smiles_repr = "COc1cc2c(c(OC)c1C(=O)/C=C/c1ccccc1)C=CC(C)(C)O2"
readout_qualifier = "="
meas_value = 4.64

[[record]]
smiles_repr = "COc1ccc(/C=C/C(=O)c2c(OC)cc3c(c2O)C=CC(C)(C)O3)cc1O"
readout_qualifier = "="
meas_value = 4.60

[[record]]
smiles_repr = "COc1cc2c(c(O)c1C(=O)/C=C/c1ccccc1)C=CC(C)(C)O2"
readout_qualifier = "="
meas_value = 4.60

[[record]]
smiles_repr = "COc1ccc(/C=C/C(=O)c2c(OC)cc3c(c2O)C=CC(C)(C)O3)c(OC)c1OC"
readout_qualifier = "="
meas_value = 4.58


---

# run.description: Cmax in male Sprague-Dawley rat at 10 mg/kg, po measured upto 48 hrs by UHPLC-MS/MS analysis
# Assay type: ADME, organism-based
# run.parameters: in vivo
endpoint: Cmax (ng/mL)

[[record]]
smiles_repr = "COc1cc2c(c(O)c1C(=O)/C=C/c1ccccc1N1CCN(C)CC1)C=CC(C)(C)O2"
result_unit = "ng/mL"
meas_value = 152


---

# run.description: AUC (0 to infinity) in male Sprague-Dawley rat at 10 mg/kg, po measured upto 48 hrs by UHPLC-MS/MS analysis
# Type: ADME, organism-based
# run.parameters: in vivo
endpoint: AUC(0-inf) (ng·h/mL)

[[record]]
smiles_repr = "COc1cc2c(c(O)c1C(=O)/C=C/c1ccccc1N1CCN(C)CC1)C=CC(C)(C)O2"
endpoint = "AUC(0-inf)"
result_unit = "ng·h/mL"
meas_value = 3000


---

# run.description: Tmax in male Sprague-Dawley rat at 10 mg/kg, po measured upto 48 hrs by UHPLC-MS/MS analysis
# Assay type: ADME, organism-based
# run.parameters: in vivo
endpoint: Tmax (h)

[[record]]
smiles_repr = "COc1cc2c(c(O)c1C(=O)/C=C/c1ccccc1N1CCN(C)CC1)C=CC(C)(C)O2"
endpoint = "Tmax"
result_unit = "h"
meas_value = 4


---

# run.description: Cmax in male Sprague-Dawley rat at 2 mg/kg, iv measured upto 8 hrs by UHPLC-MS/MS analysis
# Assay type: ADME, organism-based
# run.parameters: in vivo
endpoint: Cmax (ng/mL)

[[record]]
smiles_repr = "COc1cc2c(c(O)c1C(=O)/C=C/c1ccccc1N1CCN(C)CC1)C=CC(C)(C)O2"
result_unit = "ng/mL"
meas_value = 359


---

# System: HCT-116
# run.description: Antiproliferative activity against human HCT-116 cells incubated for 48 hrs by MTS assay
# Format: functional, cell-based
# run.parameters: HCT-116, 48 h
endpoint: IC50 (µM)

[[record]]
smiles_repr = "COc1cc2c(c(O)c1C(=O)/C=C/c1ccc3[nH]ccc3c1)C=CC(C)(C)O2"
target = "HCT-116"
endpoint = "IC50"
readout_qualifier = ">"
meas_value = 22.4

[[record]]
smiles_repr = "COc1cccc(/C=C/C(=O)c2c(OC)cc3c(c2O)C=CC(C)(C)O3)c1"
target = "HCT-116"
endpoint = "IC50"
readout_qualifier = "="
meas_value = 25.1

[[record]]
smiles_repr = "COc1cc2c(c(O)c1C(=O)/C=C/c1cccc(C(C)(C)C)c1)C=CC(C)(C)O2"
target = "HCT-116"
endpoint = "IC50"
readout_qualifier = "="
meas_value = 74.2

[[record]]
smiles_repr = "COc1cc2c(c(O)c1C(=O)/C=C/c1ccc(N3CCCC3)cc1)C=CC(C)(C)O2"
target = "HCT-116"
endpoint = "IC50"
readout_qualifier = ">"
meas_value = 200

[[record]]
smiles_repr = "COc1cc2c(c(O)c1C(=O)/C=C/c1ccccc1Br)C=CC(C)(C)O2"
target = "HCT-116"
endpoint = "IC50"
readout_qualifier = "="
meas_value = 20.5

[[record]]
smiles_repr = "COc1cccc(/C=C/C(=O)c2c(OC)cc3c(c2O)C=CC(C)(C)O3)c1OC"
target = "HCT-116"
endpoint = "IC50"
readout_qualifier = "="
meas_value = 23.1

[[record]]
smiles_repr = "COc1cc2c(c(O)c1C(=O)/C=C/c1ccc(N3CCN(C)CC3)cc1)C=CC(C)(C)O2"
target = "HCT-116"
endpoint = "IC50"
readout_qualifier = "="
meas_value = 12.5

[[record]]
smiles_repr = "COc1cc2c(c(O)c1C(=O)/C=C/c1ccccc1O)C=CC(C)(C)O2"
target = "HCT-116"
endpoint = "IC50"
readout_qualifier = "="
meas_value = 12.9


---

In this section we review reported pIC50 values for a set of compounds.
# Test system: HCT-116
# run.description: Antiproliferative activity against human HCT-116 cells incubated for 48 hrs by MTS assay
# Format: functional, cell-based
# run.parameters: HCT-116, 48 h
pIC50: −log10 of the molar value.
endpoint: pIC50

[[record]]
smiles_repr = "COc1cc2c(c(O)c1C(=O)/C=C/c1ccccc1N1CCN(C)CC1)C=CC(C)(C)O2"
readout_qualifier = "="
meas_value = 5.27

[[record]]
smiles_repr = "COc1cc2c(c(O)c1C(=O)/C=C/c1ccc(N(C)C)cc1)C=CC(C)(C)O2"
readout_qualifier = "<"
meas_value = 3.70

[[record]]
smiles_repr = "COc1cc2c(c(O)c1C(=O)/C=C/c1ccc(C(F)(F)F)cc1)C=CC(C)(C)O2"
readout_qualifier = "="
meas_value = 4.58

[[record]]
smiles_repr = "COc1cc2c(c(O)c1C(=O)/C=C/c1ccc(O)cc1)C=CC(C)(C)O2"
readout_qualifier = "="
meas_value = 4.59

[[record]]
smiles_repr = "CCOc1ccc(Br)cc1/C=C/C(=O)c1c(OC)cc2c(c1O)C=CC(C)(C)O2"
readout_qualifier = "="
meas_value = 3.93

[[record]]
smiles_repr = "COc1cc(/C=C/C(=O)c2c(OC)cc3c(c2O)C=CC(C)(C)O3)cc(OC)c1O"
readout_qualifier = "="
meas_value = 4.40

[[record]]
smiles_repr = "COc1ccc(/C=C/C(=O)c2c(OC)cc3c(c2O)C=CC(C)(C)O3)cc1Br"
readout_qualifier = "="
meas_value = 4.35

[[record]]
smiles_repr = "COc1cc2c(c(O)c1C(=O)/C=C/c1cn(C)c3ccccc13)C=CC(C)(C)O2"
readout_qualifier = "<"
meas_value = 3.70

[[record]]
smiles_repr = "COc1cc2c(c(O)c1C(=O)/C=C/c1ccc(C(C)C)cc1)C=CC(C)(C)O2"
readout_qualifier = "="
meas_value = 4.10


meta.source: ChEMBL document CHEMBL6078725
